target: Recombinant human KIF18A (1-467 His-tagged) (Homo sapiens, UniProt Q8NI77); construct: Recombinant human KIF18A (1-467 His-tagged) protein; His; assay: KIF18A Enzyme Assay: microtubule-stimulated ATPase activity (ADP-Glo); details: 30 nM KIF18A, 30 μg/mL pig microtubules, ATP 75 μM (Km), ADP-Glo luminescence
Sequence (Q8NI77 1-467): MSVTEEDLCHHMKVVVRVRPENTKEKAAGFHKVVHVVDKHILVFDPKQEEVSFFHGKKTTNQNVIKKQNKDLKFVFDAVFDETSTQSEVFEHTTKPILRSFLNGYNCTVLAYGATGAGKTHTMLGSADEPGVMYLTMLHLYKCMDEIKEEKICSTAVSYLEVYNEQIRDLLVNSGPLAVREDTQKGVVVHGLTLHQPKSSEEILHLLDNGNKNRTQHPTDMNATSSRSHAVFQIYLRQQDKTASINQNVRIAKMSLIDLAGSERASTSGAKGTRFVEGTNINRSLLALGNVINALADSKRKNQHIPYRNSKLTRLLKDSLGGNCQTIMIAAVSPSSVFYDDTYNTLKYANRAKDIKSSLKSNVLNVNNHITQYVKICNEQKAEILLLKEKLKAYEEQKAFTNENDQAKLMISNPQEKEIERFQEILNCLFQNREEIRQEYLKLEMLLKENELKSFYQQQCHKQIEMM
Sequence (P02550 whole entry partner): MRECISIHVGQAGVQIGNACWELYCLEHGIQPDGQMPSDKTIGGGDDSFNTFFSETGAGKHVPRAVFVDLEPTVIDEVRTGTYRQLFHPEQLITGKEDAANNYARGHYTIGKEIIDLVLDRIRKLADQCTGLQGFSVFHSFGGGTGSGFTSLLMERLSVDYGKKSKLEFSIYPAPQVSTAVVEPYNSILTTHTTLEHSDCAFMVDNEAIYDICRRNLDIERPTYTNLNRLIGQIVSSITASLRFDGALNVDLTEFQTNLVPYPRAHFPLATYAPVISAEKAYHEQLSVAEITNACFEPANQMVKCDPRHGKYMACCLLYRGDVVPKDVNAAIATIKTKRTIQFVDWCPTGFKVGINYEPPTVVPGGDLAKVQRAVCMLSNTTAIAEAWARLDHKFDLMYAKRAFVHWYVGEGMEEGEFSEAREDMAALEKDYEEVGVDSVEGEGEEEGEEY
Sequence (P02554 whole entry partner): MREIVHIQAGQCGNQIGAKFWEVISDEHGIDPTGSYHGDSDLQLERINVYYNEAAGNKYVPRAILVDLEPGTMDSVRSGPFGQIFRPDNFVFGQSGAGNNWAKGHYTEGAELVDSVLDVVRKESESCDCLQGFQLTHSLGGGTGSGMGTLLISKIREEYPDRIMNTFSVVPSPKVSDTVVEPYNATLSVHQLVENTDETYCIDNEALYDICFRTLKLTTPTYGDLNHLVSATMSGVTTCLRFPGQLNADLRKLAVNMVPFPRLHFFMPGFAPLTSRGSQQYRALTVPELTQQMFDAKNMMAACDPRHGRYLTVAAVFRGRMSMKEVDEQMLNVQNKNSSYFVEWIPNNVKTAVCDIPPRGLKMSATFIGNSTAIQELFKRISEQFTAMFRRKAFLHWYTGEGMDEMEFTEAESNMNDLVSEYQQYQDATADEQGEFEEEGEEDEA
pIC50: −log10 of the molar value.
reported.endpoint: pIC50

Check out these entries, answers already filled in.
>>> print(df.to_string())
                                   compound  reported_endpoint  observed_measurement
0  C[C@@H]1CN(c2cccc(NC(=O)c3ccc(NS(=O)(=O)CCO)cc3N3CCC4(CC3)CC4)n2)CCO1              pIC50                  7.52
1  C[C@@H]1CN(c2cccc(NC(=O)c3ccc(NS(=O)(=O)N(C)C)cc3N3CCC4(CC3)CC4)n2)CCO1              pIC50                  7.26
2  O=C(Nc1cccc(N2CCOCC2)n1)c1ccc(NS(=O)(=O)CCO)cc1N1CCC2(CC1)CC2              pIC50                  7.44

I. C[C@@H]1CN(c2cccc(NC(=O)c3ccc(NS(=O)(=O)C(F)F)cc3N3CCC4(CC3)CC4)n2)CCO1
II. CS(=O)(=O)c1ccc(C(=O)Nc2cccc(C3CC3)n2)c(N2CCC3(CC2)CC3)c1
III. O=C(Nc1cccc(OCCC(O)C(F)(F)F)n1)c1ccc(NS(=O)(=O)CCO)cc1N1CCC2(CC1)CC2 (stereo not shown)
Query: Place the items in sequence of falling pIC50. Give your ranking as a list of the labels in the requested order.
Result: I, III, II
(I: 7.31, III: 7.09, II: 6.74)
